assay info: NCI Yeast Anticancer Drug Screen. Data for the cln2 rad14 strain (AID 165)
experimental context: S. cerevisiae cln2 rad14 strain, at 5.0 µM (retest, dose inferred, filed as 0.5)
About 79,000 compounds went through this panel and 15% of them were active in at least one assay; those are over-represented in the sample as a whole. Activity calls are given as the source filed them. No stated cut-off is given here; in the data, active means growth inhibition above about 70%; inactive means the rest.
// allowed return values: true for active, false for inactive

CCCCCCCCCCCC(=O)c1c(O)c2ccccc2oc1=O = false
CCCCCCCCCCCCCCCCN = false
O=S(=O)(N=S(c1ccc(Cl)cc1)c1ccc(Cl)cc1)c1ccccc1 = false
Cc1ccc(NN)cc1 = false
CC(C)=CCc1c2c(c3occ(-c4ccc(O)c(O)c4)c(=O)c3c1O)C=CC(C)(C)O2 = false
Cc1cc(C)c(Cc2ccccc2O)cc1Cc1ccccc1O = false

Let us examine a further case.
Query block: Recorded test call requested for NC(=O)C(=O)N/N=C/c1ccc([N+](=O)[O-])o1
Result block: false
